FYI, the data here is from ChEMBL document CHEMBL1146640.

- Tested on: Mycobacterium tuberculosis
- PROTOCOL TEXT: Inhibitory dose required against Mycobacterium tuberculosis FtsZ polymerization
- Format: functional
- CONDITION CONTEXT: read-out: ID50 (the source's name)
ENDPOINT LABEL: pIC50
One number for each entry, as −log10 of the molar value.

- MOLECULE: "CCOC(=O)Nc1nc(NC(C)CCCN(CC)CC)c2nc(-c3ccccc3)c(-c3ccccc3)nc2n1 (configuration not stated)"
  TEST SYSTEM: "Mycobacterium tuberculosis"
  pIC50: 4.42

Proceeding to the next molecule to report its pIC50.
Look up pIC50 with Mycobacterium tuberculosis for this molecule: CCOC(=O)Nc1cc(NC(C)CCCN(CC)CC)c2nc(-c3ccccc3)c(-c3ccccc3)nc2n1 (configuration not stated)
4.47
